- tgt: ACAT (Rattus norvegicus, UniProt Q7TQM4)
- Construct: Rat liver microsomes are used as the source of ACAT; from tissue; host or cells: rat liver microsomes
- Sequence (Q7TQM4 whole entry): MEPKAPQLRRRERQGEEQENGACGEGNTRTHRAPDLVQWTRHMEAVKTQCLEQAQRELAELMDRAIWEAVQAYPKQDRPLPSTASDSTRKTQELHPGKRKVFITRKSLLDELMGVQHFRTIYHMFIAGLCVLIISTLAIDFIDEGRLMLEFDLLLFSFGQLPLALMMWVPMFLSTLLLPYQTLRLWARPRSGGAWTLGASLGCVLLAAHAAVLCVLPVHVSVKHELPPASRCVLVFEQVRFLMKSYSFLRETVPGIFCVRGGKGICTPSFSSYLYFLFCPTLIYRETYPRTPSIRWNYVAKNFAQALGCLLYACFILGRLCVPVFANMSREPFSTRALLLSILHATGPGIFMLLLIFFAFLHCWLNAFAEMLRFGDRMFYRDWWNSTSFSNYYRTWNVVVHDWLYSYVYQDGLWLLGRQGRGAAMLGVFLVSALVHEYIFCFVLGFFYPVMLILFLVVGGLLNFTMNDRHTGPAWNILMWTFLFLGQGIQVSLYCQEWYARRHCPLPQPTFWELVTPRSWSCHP
- experimentSummary: ACAT Assay (in vitro)
- Assay type: biochemical
- measurementSetup: Conc. 10 µM; negative = apparent stimulation; read-out: ACAT (in vitro) % Inhib.

[
  {
    "compound": "COc1ccc(N2C(=O)[C@H](CCCc3ccccc3)[C@H]2c2ccc(CO[Si](C)(C)C(C)(C)C)cc2)cc1 (relative stereo) [Example 1AS]",
    "unitsLabel": "%",
    "inhibition at 10 µM": 83
  },
  {
    "compound": "COc1ccc(N2C(=O)[C@H](CCCc3ccccc3)[C@@H]2c2ccc(CO[Si](C)(C)C(C)(C)C)cc2)cc1 (relative stereo) [Example 1AT]",
    "unitsLabel": "%",
    "inhibition at 10 µM": 70
  },
  {
    "compound": "CC[C@@]1(CCCc2ccccc2)C(=O)N(c2c(OC)cc(OC)cc2OC)[C@H]1c1ccccc1 (relative stereo) [Example 3D]",
    "unitsLabel": "%",
    "inhibition at 10 µM": 42
  }
]

====

- tgt: ACAT (Rattus norvegicus, UniProt Q7TQM4)
- Construct: Rat liver microsomes are used as the source of ACAT; from tissue; host or cells: rat liver microsomes
- experimentSummary: ACAT Assay (in vitro)
- Type: biochemical
- measurementSetup: Conc. 10 µM; negative = apparent stimulation; read-out: ACAT (in vitro) % Inhib.
Label Met when inhibition at 10 µM >= 20%; otherwise Not met.

[
  {
    "compound": "CCCCCCCCCC[C@H]1C(=O)N(c2ccc(OC)cc2)[C@H]1c1ccccc1 (relative stereo)",
    "tgt": "ACAT (Rattus norvegicus, UniProt Q7TQM4)",
    "classAssignment": "Not met"
  },
  {
    "compound": "COc1ccc([C@@H]2N(c3ccc(OC)cc3)C(=O)[C@@]2(Cc2ccccc2)c2ccccc2)cc1 (relative stereo)",
    "tgt": "ACAT (Rattus norvegicus, UniProt Q7TQM4)",
    "classAssignment": "Not met"
  },
  {
    "compound": "COc1ccc([C@H]2[C@@H](CCOc3ccccc3)C(=O)N2c2ccc(OC)cc2)cc1 (relative stereo)",
    "tgt": "ACAT (Rattus norvegicus, UniProt Q7TQM4)",
    "classAssignment": "Met"
  },
  {
    "compound": "COc1ccc(N2C(=O)[C@@H](CCc3ccccc3)[C@H]2c2ccccc2)cc1 (relative stereo)",
    "tgt": "ACAT (Rattus norvegicus, UniProt Q7TQM4)",
    "classAssignment": "Met"
  },
  {
    "compound": "CC[C@@H]1C(=O)N(c2ccc(OC)cc2)[C@H]1C=Cc1ccccc1 (relative stereo)",
    "tgt": "ACAT (Rattus norvegicus, UniProt Q7TQM4)",
    "classAssignment": "Not met"
  },
  {
    "compound": "COc1ccc(N2C(=O)[C@@H](CCCc3ccccc3)[C@H]2c2cccc(OC)c2)cc1 (relative stereo)",
    "tgt": "ACAT (Rattus norvegicus, UniProt Q7TQM4)",
    "classAssignment": "Met"
  },
  {
    "compound": "COc1ccc(N2C(=O)[C@@H](CCCc3ccccc3)[C@@H]2c2ccsc2)cc1 (relative stereo)",
    "tgt": "ACAT (Rattus norvegicus, UniProt Q7TQM4)",
    "classAssignment": "Met"
  },
  {
    "compound": "COc1ccc([C@H]2[C@@H](CCOc3ccc(F)cc3)C(=O)N2c2ccc(OC)cc2)cc1 (relative stereo)",
    "tgt": "ACAT (Rattus norvegicus, UniProt Q7TQM4)",
    "classAssignment": "Not met"
  },
  {
    "compound": "CC[C@@H]1C(=O)N(c2ccc(OC)cc2)[C@H]1c1ccc(N)cc1 (relative stereo)",
    "tgt": "ACAT (Rattus norvegicus, UniProt Q7TQM4)",
    "classAssignment": "Not met"
  },
  {
    "compound": "CCOc1ccc([C@H]2[C@@H](CCCc3ccccc3)C(=O)N2c2ccc(OC)cc2)cc1 (relative stereo)",
    "tgt": "ACAT (Rattus norvegicus, UniProt Q7TQM4)",
    "classAssignment": "Met"
  },
  {
    "compound": "CC[C@@]1(CCCCc2ccccc2)C(=O)N(c2ccc(OC)cc2)[C@H]1c1ccccc1 (relative stereo)",
    "tgt": "ACAT (Rattus norvegicus, UniProt Q7TQM4)",
    "classAssignment": "Met"
  },
  {
    "compound": "COc1ccc([C@@H]2[C@@H](CCCc3ccccc3)C(=O)N2c2ccc(O)cc2)cc1 (relative stereo) [Example 10A]",
    "tgt": "ACAT (Rattus norvegicus, UniProt Q7TQM4)",
    "classAssignment": "Not met"
  },
  {
    "compound": "COc1ccc(N2C(=O)[C@](Cc3ccccc3)(c3ccccc3)[C@@H]2c2ccccc2)cc1 (relative stereo)",
    "tgt": "ACAT (Rattus norvegicus, UniProt Q7TQM4)",
    "classAssignment": "Met"
  },
  {
    "compound": "COc1ccc([C@@H]2[C@H](OCCc3ccccc3)C(=O)N2c2ccc(OC)cc2)cc1 (relative stereo)",
    "tgt": "ACAT (Rattus norvegicus, UniProt Q7TQM4)",
    "classAssignment": "Not met"
  },
  {
    "compound": "COc1ccc(N2C(=O)[C@@H](CCCc3ccccc3)[C@H]2c2ccc(S(C)(=O)=O)cc2)cc1 (relative stereo) [Example 17A]",
    "tgt": "ACAT (Rattus norvegicus, UniProt Q7TQM4)",
    "classAssignment": "Met"
  },
  {
    "compound": "COc1ccc([C@H]2[C@@H](CCCC3CCCCC3)C(=O)N2c2ccc(OC)cc2)cc1 (relative stereo)",
    "tgt": "ACAT (Rattus norvegicus, UniProt Q7TQM4)",
    "classAssignment": "Met"
  },
  {
    "compound": "COc1ccc(N2C(=O)[C@@H](C)[C@H]2c2ccccc2)cc1 (relative stereo)",
    "tgt": "ACAT (Rattus norvegicus, UniProt Q7TQM4)",
    "classAssignment": "Not met"
  },
  {
    "compound": "COc1ccc(N2C(=O)[C@H](c3ccccc3)[C@@H]2c2ccccc2)cc1 (relative stereo)",
    "tgt": "ACAT (Rattus norvegicus, UniProt Q7TQM4)",
    "classAssignment": "Not met"
  },
  {
    "compound": "COc1ccc(N2C(=O)[C@H](CCCc3ccccc3)[C@H]2c2ccc(C(F)(F)F)cc2)cc1 (relative stereo)",
    "tgt": "ACAT (Rattus norvegicus, UniProt Q7TQM4)",
    "classAssignment": "Not met"
  },
  {
    "compound": "COc1ccc(N2C(=O)[C@@H](CCCc3ccccc3)[C@@H]2c2ccc(CO)cc2)cc1 (relative stereo)",
    "tgt": "ACAT (Rattus norvegicus, UniProt Q7TQM4)",
    "classAssignment": "Not met"
  },
  {
    "compound": "CCCCCCCCCC[C@]1(CCCc2ccccc2)C(=O)N(c2ccc(OC)cc2)[C@@H]1c1ccccc1 (relative stereo)",
    "tgt": "ACAT (Rattus norvegicus, UniProt Q7TQM4)",
    "classAssignment": "Met"
  },
  {
    "compound": "COc1ccc(N2C(=O)[C@H](CCCc3ccccc3)[C@@H]2c2cccs2)cc1 (relative stereo)",
    "tgt": "ACAT (Rattus norvegicus, UniProt Q7TQM4)",
    "classAssignment": "Met"
  },
  {
    "compound": "CC[C@@H]1C(=O)N(c2ccc(OC)cc2)[C@H]1c1ccc([N+](=O)[O-])cc1 (relative stereo)",
    "tgt": "ACAT (Rattus norvegicus, UniProt Q7TQM4)",
    "classAssignment": "Not met"
  },
  {
    "compound": "COc1ccc(N2C(=O)[C@@H](CCCc3ccccc3)[C@H]2c2ccc(C=O)cc2)cc1 (relative stereo)",
    "tgt": "ACAT (Rattus norvegicus, UniProt Q7TQM4)",
    "classAssignment": "Met"
  },
  {
    "compound": "COc1ccc(N2C(=O)[C@@H](CCCc3ccccc3)[C@H]2c2ccc([S+](C)[O-])cc2)cc1 (relative stereo)",
    "tgt": "ACAT (Rattus norvegicus, UniProt Q7TQM4)",
    "classAssignment": "Met"
  },
  {
    "compound": "CC[C@H]1C(=O)N(c2ccc(OC)cc2)[C@@H]1c1ccccc1 (relative stereo)",
    "tgt": "ACAT (Rattus norvegicus, UniProt Q7TQM4)",
    "classAssignment": "Not met"
  },
  {
    "compound": "CC[C@H]1C(=O)N(c2ccc(OC)cc2)[C@H]1C=Cc1ccccc1 (relative stereo)",
    "tgt": "ACAT (Rattus norvegicus, UniProt Q7TQM4)",
    "classAssignment": "Not met"
  }
]
